- Assay info: 14C assay with IPTG-induced recombinant E. coli cells (14CO2 capture from [14C]-carboxyl-labeled dicamba)
- Recorded conditions: IPTG-induced recombinant E. coli cells; [14C]-carboxyl-labeled dicamba; 14CO2 capture
Observed property: Dicamba Decarboxylase Activity

{"Molecule": "40 (protein, listed as Rhodococcus jostii) MAQGKIALEEHFAIPETLNDSAGFVPGTYWDELQARLLDIQDVRLKLMDEHNIETMILSLNAPAVQAIPERERAIDIARRANDVLAEECAKRPDRFRGFAALPLQDPDAAAEELRRCVTELGFVGALVNGFSQSATVDGGSTPLYYDLPRYRPFWAEVERLDVPFYLHPRNPLNQDARIYEGHPWLLGPTWAFAQETAVHALRLMASGLFDEHPGLRIVLGHMGEGIPAMLWRIDHRNAWVDVPPAYPAKRRMVDYFTENFFVTTSGNFRTQTLIDLLLELGSERVMFSTDWPFENINHAAEWFDAASISEADRLKIGRTNAATLFKLDR", "Dicamba Decarboxylase Activity": "Low"}
{"Molecule": "108 (protein, listed as Staphylococcus aureus) MAKSITFEEHYVIEDIQKETMNAISADPKGVPMKVMLEGLEKKTGFTNADELSHHDERIQFMNNQDVQIQVLSYGNGSPSNLVGQKAIELCQKANDQLANYIAQYPNRFVGFATLPINEPEAAAREFERCINDLGFKGALIMGRAQDGFLDQDKYDIIFKTAENLDVPIYLHPAPVNSDIYQSYYKGNYPEVTAATFACFGYGWHIDVGIHAIHLVLSGIFDRYPKLNMIIGHWGEFIPFFLERMDEALFAEHLNHSVSYYFKNSFYITPSGMLTKPQFDLVKKEVGIDRILYAADYPYIEPEKLGVFLDELGLTDEEKEKISYTNGAKLLGLSSNN", "Dicamba Decarboxylase Activity": "High"}
{"Molecule": "38 (protein, listed as Variovorax paradoxus) MAQGKIGLEEHFAIPQTLQDSAGFVPGVYWKELSSRLLDIHDGRLRQMDEHGMEMMILSLNAPAVQAVADPVKAYELAVRANDFLAEQVAKRPDRFQAFAALPMQDPEKATQELERCMSVLGFRGALVNGFSQVGTPDNVAYYDAPQYAPFWAAAERLDAPFYLHPRNPIASWAQIYEGHPWLLGPTWAFAQETAVHALRLMASGLFDRHPGLKIILGHLGEGLPYNMWRVDHRNAWVKAPKGYPAKRKLCEYFQENFYLTTSGNFRTQTLIDAMLEVGSDRILFSTDWPFENIDHASNWFNDTSISEADRKKIGRTNAMSLFKLA", "Dicamba Decarboxylase Activity": "Low"}
{"Molecule": "69 (protein, listed as Microbacterium testaceum) MATSTEGQDVTDVHAHLLMPGLHAEVERRVPDEVQAAADLELRRNGLASLQASGRMIGERFPRLTDVRARLAAMDEQGVDRQWVSPSPNHFYPWANEGLATWASGEANRLIAEHVALAPDRLVGLGVVPLQHPHLVVDALDDAVLGRGLAGVEISSFAGDVELSDERLESFWARAAELRAVVFLHPFGCSLDERLDRFYLSNTVGQPTENAVALSHLIFSGVLDRHPGLRLIAAHGGGYLPTAIGRSDRAWRVRPEARGCAHAPSTYLSKLWFDTVVHDERALRWLVEAAGADRVLLGSDFPFDMGLDDPVAFVRGAGLQDAEVSGILGGNAAELLRTRVHA", "Dicamba Decarboxylase Activity": "No"}
{"Molecule": "80 (protein, listed as Cordyceps militaris) MAAASTPVVVDIHTHMYPPSYIAMLEKRQTIPLVRTFPQADEPRLILLSSELAALDAALADPAAKLPGRPLSTHFASLAQKMHFMDTNGIRVSVISLANPWFDFLAPDEAPGIADAVNAEFSDMCAQHVGRLFFFAALPLSAPVDAVKASIERVKNLKYCRGIILGTSGLGKGLDDPHLLPVFEAVADAKLLVFLHPHYGLPNEVYGPRSEEYGHVLPLALGFPMETTIAVARMYMAGVFDHVRNLQMLLAHSGGTLPFLAGRIESCIVHDGHLVKTGKVPKDRRTIWTVLKEQIYLDAVIYSEVGLQAAIASSGADRLMFGTDHPFFPPIEEDVQGPWDSSRLNAQAVIKAVGEGSSDAAAVMGLNAVRVLSLKAE", "Dicamba Decarboxylase Activity": "Low"}

Fill blank: measured Dicamba Decarboxylase Activity of the molecule 100 (protein, listed as Reinekea blandensis) MAIIDCHGHYTTTPKGVEDYRNAQKAAVAKDPSFKGEKGQVVVSDDEIRESIENNQLKMQRERGTDLTIFSPRASWMGHHIGNEYTSQFWTEHQNDLIRRVCDLFPKNFAPVAQLPQSPGVDPAKSVPEIVRTVEQMGFIGINLNPDPSGGYWKDTSLADRAFYPIYEKMVEYDIPAMIHVSAACNDCFHTTGSHYLGADTTGFQQLIMSDVFKDFPSLKIIIPHGGGAVPYHWGRFRGLMQDQGYAPLEESALKNIYFDTCVYHQRGIDLLLDIVPTQNILFASEMIGAVRGIDPETGHNFDDTKRYIDNNTALNAEEKAMIFEGNARRVFSRLKTD is ____.
No

62 (protein, Bacillus thuringiensis serovar pulsiensis) MAVGGKNFRDVTDQVWCPKKRIEDMDREGVDIQVLSPIPVTFSYWAKPEEAESMARIQNDFIAETVLAYPDRFVGLGTVPMQDGETAIREMERCITELNLHGIEIGTNVNGKNLDDPSFIEFFRMAEKWQVPIFIHPWETLGRDRMPHHNFMYTVGMPSETALAAATLIWSGIMEKFPRLKVCFAHGGGSFPYILPRLDQGWKVWPHLRLTTHPPSYYAKKFYFDSLNYDPINLKYMIERFGHEKIFMGSDYPFLLREVDPGKVIDETASLSEEQKAAMLGGNAAEFLNIDIKKRGVAYAESTNT , same question.
No
